# Study System: BTK-1h (Homo sapiens, UniProt Q06187)
# Construct: The BTK kinase domain was diluted to 2 μM in the buffer, and 2 μM 1h was added; made in house
# Sequence (Q06187 402-655): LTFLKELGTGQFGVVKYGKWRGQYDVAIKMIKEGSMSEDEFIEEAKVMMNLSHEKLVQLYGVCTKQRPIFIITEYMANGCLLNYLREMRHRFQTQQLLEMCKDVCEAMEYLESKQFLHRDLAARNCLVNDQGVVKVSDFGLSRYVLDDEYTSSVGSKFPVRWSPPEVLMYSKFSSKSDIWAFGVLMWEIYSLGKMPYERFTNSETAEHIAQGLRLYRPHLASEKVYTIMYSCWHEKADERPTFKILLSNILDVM
# Measurement Protocol: High-throughput screening with 1h-labeled BTK
# Type: binding
# Condition Summary: Dataset S2B; 200 μM inhibitor added to BTK-1h (2 μm)
Quick rule: FI (BTK-1h)/FI (BTK-1h+Inhibitor) at 620 nm of at least 10 means Condition met, below that means Condition not met.

Please tell me: is the molecule CC#CC(=O)N1CC[C@@H](n2c(=O)n(-c3ccc(Oc4ccccc4)cc3)c3c(N)ncnc32)C1 at or over 10 in terms of FI (BTK-1h)/FI (BTK-1h+Inhibitor) at 620 nm? Condition not met

Please tell me: is the molecule O=C1CC(=O)c2c(Cl)c(Cl)c(Cl)c(Cl)c21 at or over 10 in terms of FI (BTK-1h)/FI (BTK-1h+Inhibitor) at 620 nm? Condition met

Please tell me: is the molecule O=[N+]([O-])c1ccc(Sc2cccc[n+]2[O-])c2nonc12 at or over 10 in terms of FI (BTK-1h)/FI (BTK-1h+Inhibitor) at 620 nm? Condition not met

Please tell me: is the molecule O=c1cc(-c2ccc(O)cc2)oc2cc(O)c(O)c(O)c12 at or over 10 in terms of FI (BTK-1h)/FI (BTK-1h+Inhibitor) at 620 nm? Condition not met

###

Task for the reader: assign each of the following compounds its reported FI (650)/FI (620).
# Study System: BTK-1h (Homo sapiens)
# Construct: The BTK kinase domain was diluted to 2 μM in the buffer, and 2 μM 1h was added; made in house
# Measurement Protocol: High-throughput screening with 1h-labeled BTK
# Type: binding
# Condition Summary: Dataset S2A; 200 μM compound, BTK-1h, 32 °C, 10 min
Reply briefly: the number, and no unit.

Please look at CN[C@H]1C(=O)N[C@@H]2Cc3ccc(cc3)Oc3cc4cc(c3O[C@@H]3O[C@H](C(=O)O)[C@@H](O)[C@H](O)[C@H]3NC(=O)CCCCCCCCC(C)C)Oc3ccc(cc3Cl)[C@@H](O)[C@@H]3NC(=O)[C@H](NC(=O)[C@@H]4NC(=O)[C@@H](NC2=O)c2cc(cc(O)c2Cl)Oc2cc1ccc2O)c1ccc(O)c(c1)-c1c(O[C@H]2O[C@H](CO)[C@@H](O)[C@H](O)[C@@H]2O)cc(O)cc1[C@@H](C(=O)NCCCN(C)C)NC3=O [PCM-0215113-001] and tell me its recorded FI (650)/FI (620) on BTK-1h (Homo sapiens). 0.7724

Please look at Cn1cc(-c2cc(Oc3cc(F)c(NC(=O)C4(C(=O)Nc5ccccc5)CC4)cc3F)ccn2)cn1 [PCM-0216116-001] and tell me its recorded FI (650)/FI (620) on BTK-1h (Homo sapiens). 1.3565

Please look at Cc1ccc(C(=O)Nc2ccc(CN3CCN(C)CC3)c(C(F)(F)F)c2)cc1C#Cc1cnc2[nH]ncc2c1 [PCM-0215209-001, GZD824 Dimesylate] and tell me its recorded FI (650)/FI (620) on BTK-1h (Homo sapiens). 1.799

Please look at CCCCCCCCCCCCCCCC(=O)O[C@@H]1[C@@H](O)[C@@H](O)[C@@H]([C@H](NC(=O)[C@@H]2C[C@@H](CCC)CN2C)[C@H](C)Cl)O[C@@H]1SC.Cl [PCM-0215167-001] and tell me its recorded FI (650)/FI (620) on BTK-1h (Homo sapiens). 0.5899

Please look at O=c1c(O)c(-c2ccc(O)cc2)oc2cc(O)cc(O)c12 [PCM-0087037-002] and tell me its recorded FI (650)/FI (620) on BTK-1h (Homo sapiens). 0.933

Please look at Cc1cc(Nc2cc(CN3CCOCC3)c3nc(C)c(Cc4ccc(Cl)cc4F)n3n2)n[nH]1 [PCM-0095222-002] and tell me its recorded FI (650)/FI (620) on BTK-1h (Homo sapiens). 1.03

Please look at Cc1c(C(=O)Nc2ccc(Oc3ccnc4[nH]cc(-c5ccccc5)c34)c(F)c2)c(=O)n(-c2ccc(F)cc2)n1C [PCM-0215493-001] and tell me its recorded FI (650)/FI (620) on BTK-1h (Homo sapiens). 1.1367

Please look at O=c1cc(-c2ccc(O)c(O)c2)oc2cc(O)cc(O)c12 [PCM-0086559-001] and tell me its recorded FI (650)/FI (620) on BTK-1h (Homo sapiens). 2.125

Please look at C=CC(=O)Nc1ccc2ncnc(Nc3ccc(OCc4cccc(F)c4)c(Cl)c3)c2c1.Cc1ccc(S(=O)(=O)O)cc1 [PCM-0095229-002] and tell me its recorded FI (650)/FI (620) on BTK-1h (Homo sapiens). 0.9282

Please look at N#CC(C#N)=Cc1ccc(O)c(O)c1 [PCM-0064867-001] and tell me its recorded FI (650)/FI (620) on BTK-1h (Homo sapiens). 0.9306

Please look at CCCCCC/C=C\CCCCCCCc1cccc(O)c1C(=O)O [PCM-0216327-001] and tell me its recorded FI (650)/FI (620) on BTK-1h (Homo sapiens). 3.101

Please look at NC(=O)Nc1cc(-c2cccc(F)c2)sc1C(=O)N[C@H]1CCCNC1 [PCM-0095092-003] and tell me its recorded FI (650)/FI (620) on BTK-1h (Homo sapiens). 1.105

Please look at O=C(O)c1ccc(N2C(=O)/C(=C/c3ccc(-c4ccc([N+](=O)[O-])cc4)o3)C=C2c2ccccc2)cc1 [PCM-0095764-003] and tell me its recorded FI (650)/FI (620) on BTK-1h (Homo sapiens). 1.233

Please look at O=C(O)C1(Cc2cccc(Nc3nccs3)n2)CCC(Oc2cccc(Cl)c2F)CC1 (stereo not shown) [PCM-0095334-002] and tell me its recorded FI (650)/FI (620) on BTK-1h (Homo sapiens). 1.3013

Please look at COc1c(O)c(C)cc2c1C(=O)c1c(O)cccc1C2=O [PCM-0216457-001] and tell me its recorded FI (650)/FI (620) on BTK-1h (Homo sapiens). 1.085

Please look at C[n+]1cc2c3c(ccc2c2ccc4cc5c(cc4c21)OCO5)OCO3.[Cl-] [PCM-0065605-002] and tell me its recorded FI (650)/FI (620) on BTK-1h (Homo sapiens). 1.399

Please look at Cc1nc(Nc2n[nH]c3c2CN(C(=O)N[C@H](CN(C)C)c2ccccc2)C3(C)C)c2sccc2n1 [PCM-0095819-002] and tell me its recorded FI (650)/FI (620) on BTK-1h (Homo sapiens). 0.9908

Please look at COc1cccc(-n2c(=O)[nH]c3cc(Cl)n(-c4ccc(-c5cccc(OC)c5O)cc4)c3c2=O)c1 [PCM-0215555-001] and tell me its recorded FI (650)/FI (620) on BTK-1h (Homo sapiens). 1.019

Please look at CC1=C(O)C(=O)C=C2C1=CC=C1[C@@]2(C)CC[C@@]2(C)[C@@H]3C[C@](C)(C(=O)O)CC[C@]3(C)CC[C@]12C [PCM-0214611-001] and tell me its recorded FI (650)/FI (620) on BTK-1h (Homo sapiens). 0.9422

Please look at CCS(=O)(=O)N1CCN(c2ccc(Nc3ncc(C(N)=O)c(NC4CC4)n3)cc2)CC1.Cl [PCM-0215389-001] and tell me its recorded FI (650)/FI (620) on BTK-1h (Homo sapiens). 1.233

Please look at NC(=O)c1cnc2[nH]ccc2c1NC1[C@@H]2CC3C[C@H]1CC(O)(C3)C2 (stereo partly shown) [PCM-0215550-001] and tell me its recorded FI (650)/FI (620) on BTK-1h (Homo sapiens). 1.093

Please look at CS(=O)(=O)O.O=C(Nc1cccc(Cl)c1)Nc1ncc(CCNc2ncnc3ccsc23)s1 [PCM-0094983-002] and tell me its recorded FI (650)/FI (620) on BTK-1h (Homo sapiens). 1.066

Please look at CN(CC(=O)N(Cc1ccc(C2CCCCC2)cc1)c1ccc(C(=O)O)cc1)S(=O)(=O)c1c(F)c(F)c(F)c(F)c1F [PCM-0095763-002] and tell me its recorded FI (650)/FI (620) on BTK-1h (Homo sapiens). 1.026

Please look at COc1cc2c(Nc3ccc(NC(=O)c4ccccc4)cc3)ncnc2cc1OCCCN1CCOCC1 [PCM-0094881-002] and tell me its recorded FI (650)/FI (620) on BTK-1h (Homo sapiens). 1.089

Please look at Cl[Te]1(Cl)(Cl)OCCO1.N [PCM-0215721-001] and tell me its recorded FI (650)/FI (620) on BTK-1h (Homo sapiens). 1.1548

Please look at CC/C(=C(/c1ccc(/C=C/C(=O)O)cc1)c1ccc2[nH]ncc2c1)c1ccc(F)cc1Cl [PCM-0216010-001] and tell me its recorded FI (650)/FI (620) on BTK-1h (Homo sapiens). 1.58

Please look at CC#CC(=O)Nc1ccc2ncnc(Nc3cccc(Br)c3)c2c1 [PCM-0215449-001] and tell me its recorded FI (650)/FI (620) on BTK-1h (Homo sapiens). 1.009

Please look at O=C(Nc1cccc2c(=O)cc(-c3nn[nH]n3)oc12)c1ccc(OCCCCc2ccccc2)cc1 [PCM-0095155-002] and tell me its recorded FI (650)/FI (620) on BTK-1h (Homo sapiens). 1.503
